- Test system: 786-0 renal
- Experiment: NCI-60 one-dose screen, 48 h
- Applied Conditions: 10 µM unless noted
About 83,000 compounds went through this panel and 20% of them were active in at least one assay; those are over-represented in the sample as a whole. The source made the active and inactive calls. Rule for the calls: active = growth percent below 10; inactive = the rest.
Answer with one of the outcomes 1 (yes) = active, 0 (no) = inactive

Consider the worked cases shown below.
// param item: `Cn1cc(-c2cc3nc(-c4cn(C)c5ncc(Br)cc45)cc(N)n3n2)c2ccccc21` ; yields the recorded call 1 (yes)

// param item: `CC(C)Sc1nc(NCCc2c[nH]c3ccccc23)c(C#N)c(-c2ccc(F)cc2)n1` ; yields the recorded call 0 (no)

// param item: `O=C(/C=C/Nc1ccc2oc(=O)ccc2c1)c1cc2cc(Br)ccc2oc1=O` ; yields the recorded call 0 (no)

// param item: COc1c(F)ccc(C(=O)Nc2ccc3nc(NC(=O)C4CCCN(S(=O)(=O)c5ccc(Br)c(F)c5)C4)sc3c2)c1F (centres undefined) ; yields the recorded call 0 (no)

// param item: COc1ccc2oc(=O)c(C3(C)NC(=O)c4c(/C=C/C(=O)OC(C)(C)C)cccc4N3)cc2c1 (centres undefined) ; yields the recorded call 0 (no)

Next:
// param item: CC(C)C(C(=O)O)n1c(O)c(/C=C2/C=c3cc4c(cc3=NC2=O)OCO4)sc1=S (centres undefined) ; yields the recorded call 0 (no)

// param item: `Cc1ccc(S(=O)(=O)c2nc(S(=O)(=O)c3ccc(C)cc3)c(N3CCC(O)CC3)s2)cc1` ; yields the recorded call 0 (no)

// param item: `COc1ccc(/C=C/c2n(Cc3ccc4ccccc4c3)c3ccccc3[n+]2Cc2ccc3ccccc3c2)cc1` ; yields the recorded call 1 (yes)

// param item: `Clc1cccc(Cl)c1/C=C/c1cc(/C=C/c2ccc(Br)cc2)c2ccccc2n1` ; yields the recorded call 0 (no)

// param item: `Cc1cc2nc3c4ccccc4n(CCCN(C)C)c3nc2cc1C` ; yields the recorded call 1 (yes)

// param item: `COc1ccc2[nH]cc(-c3nnc(N)nc3-c3c[nH]c4ncc(Br)cc34)c2c1` ; yields the recorded call 0 (no)

// param item: C#CCOc1cc(N(CC)CC)ccc1C(C(=O)NC(C)(C)C)N(C(=O)C1CCc2cc(F)ccc2O1)c1cc(C)cc(C)c1 (centres undefined) ; yields the recorded call 0 (no)

// param item: C=C1CCC2C3(C)COC(c4ccc(F)cc4)OC3CCC2(C)C1C/C=C1/C(=O)OCC1O (centres undefined) ; yields the recorded call 1 (yes)

// param item: `CN1CCN(c2ccc(C(=O)/C=C/c3cc(C(F)(F)F)cc(C(F)(F)F)c3)cc2)CC1` ; yields the recorded call 1 (yes)

// param item: `COc1ccc(/C=N/NC(=O)Cn2nc(Cc3ccc(OC)cc3)c3onc(C)c3c2=O)cc1` ; yields the recorded call 1 (yes)

// param item: `COc1ccc(C(=O)/C=C/c2ccccc2Br)cc1S(N)(=O)=O` ; yields the recorded call 1 (yes)

// param item: O=C(C1=CNC(=S)NC1c1ccc(O)cc1)c1cc2ccccc2oc1=O (centres undefined) ; yields the recorded call 0 (no)

// param item: `Cc1ccc2c(N)c(C(=O)Nc3ccc(-c4ccccc4)cc3)sc2n1` ; yields the recorded call 0 (no)

// param item: `COc1ccc(-c2nc3cc(C)ccc3n2CC(=O)N=Nc2c(O)[nH]c3ccc(Br)cc23)cc1` ; yields the recorded call 0 (no)
